assayTarget: UniProtKB Q8NBP7
Sequence (Q8NBP7 153-692): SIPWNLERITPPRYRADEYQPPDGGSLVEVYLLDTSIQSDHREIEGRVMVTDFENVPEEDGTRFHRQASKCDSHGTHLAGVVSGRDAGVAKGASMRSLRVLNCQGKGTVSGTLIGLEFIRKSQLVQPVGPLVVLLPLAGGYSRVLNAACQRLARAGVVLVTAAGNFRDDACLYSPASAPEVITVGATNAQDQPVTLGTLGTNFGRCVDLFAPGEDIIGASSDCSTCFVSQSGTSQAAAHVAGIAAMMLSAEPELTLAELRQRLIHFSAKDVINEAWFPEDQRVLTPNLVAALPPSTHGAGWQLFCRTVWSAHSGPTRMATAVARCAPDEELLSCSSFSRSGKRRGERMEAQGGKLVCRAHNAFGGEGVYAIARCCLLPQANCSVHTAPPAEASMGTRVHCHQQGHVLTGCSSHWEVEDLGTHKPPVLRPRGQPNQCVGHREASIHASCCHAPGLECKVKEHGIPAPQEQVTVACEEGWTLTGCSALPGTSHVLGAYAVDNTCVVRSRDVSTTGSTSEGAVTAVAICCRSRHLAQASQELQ
Sequence (Q8NBP7 31-152 partner limits assumed): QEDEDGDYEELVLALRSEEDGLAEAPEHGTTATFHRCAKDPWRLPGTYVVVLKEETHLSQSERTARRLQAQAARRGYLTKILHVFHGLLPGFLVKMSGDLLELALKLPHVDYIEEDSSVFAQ
assayInfo: PCSK9 ligand binding TR-FRET assay (interference with binding of human PCSK9 to human LDLR)
studyConditions: PCSK9 FRET assay, efficacy (Amax); 100% = 1 uM unlabeled human PCSK9, 0% = DMSO
measuredProperty: Max % inhibition (%)

(A) COC[C@@H]1NC(=O)[C@H](C)N(Cc2ccc(Cl)cc2Oc2ccc(-c3c(C)nc(CN4CCCC4)n3C)cc2)C(=O)C[C@@H](Cc2ccccc2)C(=O)N(C)[C@@H](C)CNC(=O)C[C@H](Cc2ccc(Cl)cc2)N(C)C1=O
(B) COC[C@@H]1NC(=O)[C@H](C)N(Cc2ccc(Cl)cc2Oc2ccc(-c3cnc(CN(C)C)n3C)cc2)C(=O)C[C@@H](Cc2ccc(F)cn2)C(=O)N(C)[C@@H](C)CNC(=O)C[C@H](Cc2ccc(Cl)cc2)N(C)C1=O
Inquiry: Endpoint returns whichever of A and B has the numerically higher Max % inhibition. Answer by quoting the chosen item's label.
Reply text: B
